target: Env of HIV-1 strain 251-18 (HIV-1); test: cell-based or functional assay
property-label: neutralization IC50 (mg/L)

- γ23κ5 (antibody, V domains shown) VH: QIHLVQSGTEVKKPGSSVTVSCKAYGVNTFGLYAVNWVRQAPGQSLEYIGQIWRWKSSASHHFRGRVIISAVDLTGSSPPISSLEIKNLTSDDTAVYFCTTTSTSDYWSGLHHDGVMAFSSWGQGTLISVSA VL: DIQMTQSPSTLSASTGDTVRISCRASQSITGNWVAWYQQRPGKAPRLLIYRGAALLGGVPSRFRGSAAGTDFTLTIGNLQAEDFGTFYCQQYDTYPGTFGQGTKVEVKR: 0.176
- γ52κ61 (antibody, V domains shown) VH: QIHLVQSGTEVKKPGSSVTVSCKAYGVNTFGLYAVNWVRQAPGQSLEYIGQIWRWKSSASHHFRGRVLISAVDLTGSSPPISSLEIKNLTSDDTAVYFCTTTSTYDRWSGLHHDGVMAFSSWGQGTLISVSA VL: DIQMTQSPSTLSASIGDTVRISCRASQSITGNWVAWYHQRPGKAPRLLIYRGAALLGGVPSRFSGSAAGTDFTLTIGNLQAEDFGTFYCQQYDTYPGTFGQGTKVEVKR: 0.273

src = patent US20180171001A1
